methodNotes: recombinant barcode read abundance after kanamycin selection (control-corrected) (log10(CPM+1)); higher = more efficient recombination; sequences stand for … in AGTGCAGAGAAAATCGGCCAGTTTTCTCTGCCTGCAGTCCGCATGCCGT…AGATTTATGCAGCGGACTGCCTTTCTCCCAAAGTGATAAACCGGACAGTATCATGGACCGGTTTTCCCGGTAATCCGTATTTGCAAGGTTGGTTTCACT; site = the 11-nt target;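 further: IS621 recombinase and bridge RNA in Escherichia coli cells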
Classify by measured recombinant barcode read abundance (log10): true if it is equal to or exceeds 0.6, false if it is smaller.

Field: example entries. Status: answers known.
Request: Form field: recombinant barcode read abundance (log10) at least 0.6? Entry: CGCGAGTCTTGGGTTCTAACCTGTTGCTG (site TAATTTGCTAG)
Response: false

Request: Form field: recombinant barcode read abundance (log10) at least 0.6? Entry: TCTCGGTCTTGGGTTCTAACCTGTTGCCT (site TCTCGGTCTAG)
Response: false

Request: Form field: recombinant barcode read abundance (log10) at least 0.6? Entry: GCTGGCCCTTGGGTTCTAACCTGTTGCCT (site GATGGCCCTAG)
Response: false

Request: Form field: recombinant barcode read abundance (log10) at least 0.6? Entry: CCACCGTCTTGGGTTCTAACCTGTTGCCT (site CCACGGTCTAG)
Response: false

Request: Form field: recombinant barcode read abundance (log10) at least 0.6? Entry: AAGATTCCTTGGGTTCTAACCTGTTGCCT (site AAGATTCCTAG)
Response: false

Would you kindly look at the next entry?
Request: Form field: recombinant barcode read abundance (log10) at least 0.6? Entry: ATCGCTCCTTGGGTTCTAACCTGTTGCCT (site ATCGCTCCTAG)
Response: true
